System: MS2 coat protein
method description: apparent KD of MS2 coat protein; designed switch direction (-1 OFF switch, 1 ON switch): -1; higher = weaker reporter binding
settings: input ligand: none
# if value of apparent KD of MS2 coat protein reaches 70 nM, tag 1 (yes); if it stays below, tag 0 (no)

* GUUCACGUAGGAUAUACGGUUGGUGUGCGCGAAGGCCUUUGACAUGAGGAUCACCCAUGUAGAAGGACGAUGAA [EX2 C.24] (Eterna round: R97, puzzle: Exclusion 2) | 0 (no)
* AUUGAUAGCACAGGAUAUUGAGAUUUGAAUUGACAAGAAGGGUGUACAUGAGGAUCACCCAUGUAAUGGGAGAGUGGUUGAUUA [JR_ExcNG1_Sub002] (Eterna round: R96, puzzle: Exclusion NG 1) | 1 (yes)
* UAAGUUUACCGAGGAUAUGGUUUUUCCUAUUAACCAGAAGGCGGACUCAACAUGAGGAUCACCCAUGUAUAAAGGGUAUUAGGU [JR_ExcNG1_Sub044] (Eterna round: R96, puzzle: Exclusion NG 1) | 1 (yes)
* AUCAUAUAACAAGCUUUUUACAUGAGGAUCACCCAUGUGGUUUUUAGUCUUAUCCCGGGCCCGAUAUCGGGCCCGGG [-33.4, -54.7, A 22%] (Eterna round: R97, puzzle: Sensor, turn-off variant 1) | 0 (no)

Consider now this further sequence.
Exercise: Can GACCCACAUGAGGAUCACCCAUGUCAGGAUAUGCAGUUGGAUGCGUCAGAUUUCCAUAGCAGAAGGGAUCUGGC [Eternabot (Original) Solution 14] (Eterna round: R97, puzzle: Exclusion 1) be said to have apparent KD of MS2 coat protein at or above 70 nM?
Solution: 0 (no)
